# measured-on: Ubiquitin-conjugating enzyme E2 N (Homo sapiens, UniProt P61088)
# Sequence (P61088 whole entry): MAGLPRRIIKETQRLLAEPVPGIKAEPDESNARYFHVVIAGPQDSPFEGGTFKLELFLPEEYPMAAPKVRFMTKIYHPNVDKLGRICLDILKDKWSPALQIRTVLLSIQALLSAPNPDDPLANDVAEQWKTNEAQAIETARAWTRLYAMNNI
# Type: functional
Active and inactive are the calls of the source.
Form entry, call: pick from active, inactive

Solved cases (4 shown):
CCc1ccc(C(=O)Nn2c(C)nc3ccccc3c2=O)cc1 : inactive
CCOC(=O)c1c(NC(=O)C(NCCN(C)C)c2ccccc2)sc2c1CCCC2 (stereo not given) : inactive
CCOC(=O)c1cccc(NS(=O)(=O)c2c(C(=O)N3CCCCCC3)c(C)n(C)c2C)c1 : inactive
Cc1cccc(C)c1NC(=O)Cn1c(=O)n(CCCC(=O)NC2CCN(Cc3ccccc3)CC2)c(=O)c2ccccc21 : active

Kindly consider the entry below.
Q: So what was the verdict on `CCOc1ccccc1-c1nc(C(N)=O)c2nc(O)n(-c3ccc(F)cc3)c2n1` in this test?
Ans: inactive

---

# experiment-description: inhibitors of SNCA 5'UTR-driven reporter translation, confirmation, H4 neuroglioma cells, luminescence (AID 1988)
# Format: functional, cell-based
The source made the active and inactive calls.
quantity-name: EC50

COC(=O)c1cc2ccsc2n1CC(=O)Nc1cc(Cl)ccc1OC : 10.9 µM (active)
Cc1cc(=O)n2nc(N3CCCC(C(=O)N4CCc5ccccc54)C3)sc2n1 (centres undefined) : 34.1 µM (active)
Cc1sc2ncnc(N/N=C/c3ccccc3O)c2c1C : < 0.1 µM (active)

Q: Any idea what EC50 was measured for `Oc1ccc2ccccc2c1N=Nc1ccccn1` ?
Ans: 2.29 µM (active)

---

# measured-on: DNA repair and recombination protein RAD54-like (Homo sapiens, UniProt Q92698)
# Sequence (Q92698 whole entry): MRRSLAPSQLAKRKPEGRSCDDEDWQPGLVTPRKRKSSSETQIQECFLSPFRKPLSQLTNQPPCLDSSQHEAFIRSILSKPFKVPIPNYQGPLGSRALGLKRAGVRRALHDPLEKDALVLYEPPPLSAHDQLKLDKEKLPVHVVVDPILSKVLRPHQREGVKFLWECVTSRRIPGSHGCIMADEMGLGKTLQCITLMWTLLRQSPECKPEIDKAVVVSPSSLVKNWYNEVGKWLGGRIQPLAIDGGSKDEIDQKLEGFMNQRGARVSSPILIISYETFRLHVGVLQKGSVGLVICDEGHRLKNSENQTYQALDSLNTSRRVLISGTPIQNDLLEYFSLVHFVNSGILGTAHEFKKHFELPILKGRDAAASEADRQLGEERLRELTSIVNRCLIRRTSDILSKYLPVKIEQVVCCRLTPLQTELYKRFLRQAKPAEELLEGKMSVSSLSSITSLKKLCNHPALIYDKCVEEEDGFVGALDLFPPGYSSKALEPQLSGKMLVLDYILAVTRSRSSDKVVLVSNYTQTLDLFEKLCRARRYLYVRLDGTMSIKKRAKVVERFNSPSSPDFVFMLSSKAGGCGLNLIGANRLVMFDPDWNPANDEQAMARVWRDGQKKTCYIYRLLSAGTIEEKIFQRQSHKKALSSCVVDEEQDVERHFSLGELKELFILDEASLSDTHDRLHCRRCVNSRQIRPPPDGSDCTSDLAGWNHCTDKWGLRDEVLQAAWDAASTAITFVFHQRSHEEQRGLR
# experiment-description: inhibitors of human RAD54 branch migration, confirmation, biochemical, fluorescence, cherry-picked samples, dose series (AID 651657)
# Assay type: functional
Active and inactive are the calls of the source.
quantity-name: AC50

These solved cases illustrate the format of a correct answer.
Oc1ccc(Nc2ccnc3cc(Cl)ccc23)cc1 : 80.3 µM (active)
CCN(CC)CCn1c2ccc(Cl)cc2c2nc(C)sc21 : 22.1 µM (active)
CNC(C)C#Cc1ccc2oc3cccc(OC)c3c(=O)c2c1 (configuration not stated) : 24.3 µM (active)

Q: Any idea what AC50 was measured for `Cc1cc(NCCCN(C)C)n2c(nc3ccccc32)c1C#N` ?
Ans: 18.7 µM (active)

Q: Any idea what AC50 was measured for `OCCN1CCN(c2nc(-c3ccccc3O)nc3ccccc23)CC1` ?
Ans: 7.01 µM (active)

Q: Any idea what AC50 was measured for `CCOC(=O)c1cnc2c(Cl)cccc2c1NCCCN1CCOCC1` ?
Ans: 32.7 µM (active)

Q: Any idea what AC50 was measured for `CCCCN(CC)CCCNC(=S)Nc1ccc2nc(N3CCN(C)CC3)cc(C)c2c1` ?
Ans: 30.8 µM (active)

---

# measured-on: Heat shock protein HSP 90-alpha (Homo sapiens)
# Type: functional, organism-based
Active and inactive are the calls of the source.
Overview of reported AC50 across a group of compounds:

Cc1sc2ncnc(N/N=C/c3ccccc3O)c2c1C : 2.1 µM (active)
Oc1ccc2ccccc2c1N=Nc1ccccn1 : 2.7 µM (active)
O=C(CCCNC(=O)c1ccc(Cl)cc1)OCc1cccc(Br)c1 : 5.23 µM (active)

Q: Any idea what AC50 was measured for Cc1cc(Cl)ccc1C(=O)C1CCCN(C(=O)c2cncs2)C1 (centres undefined) ?
Ans: 3.92 µM (active)

---

Overview of reported EC50 across a group of compounds:
# measured-on: Short transient receptor potential channel 4 (Mus musculus)
# Sequence (Q9QUQ5 whole entry): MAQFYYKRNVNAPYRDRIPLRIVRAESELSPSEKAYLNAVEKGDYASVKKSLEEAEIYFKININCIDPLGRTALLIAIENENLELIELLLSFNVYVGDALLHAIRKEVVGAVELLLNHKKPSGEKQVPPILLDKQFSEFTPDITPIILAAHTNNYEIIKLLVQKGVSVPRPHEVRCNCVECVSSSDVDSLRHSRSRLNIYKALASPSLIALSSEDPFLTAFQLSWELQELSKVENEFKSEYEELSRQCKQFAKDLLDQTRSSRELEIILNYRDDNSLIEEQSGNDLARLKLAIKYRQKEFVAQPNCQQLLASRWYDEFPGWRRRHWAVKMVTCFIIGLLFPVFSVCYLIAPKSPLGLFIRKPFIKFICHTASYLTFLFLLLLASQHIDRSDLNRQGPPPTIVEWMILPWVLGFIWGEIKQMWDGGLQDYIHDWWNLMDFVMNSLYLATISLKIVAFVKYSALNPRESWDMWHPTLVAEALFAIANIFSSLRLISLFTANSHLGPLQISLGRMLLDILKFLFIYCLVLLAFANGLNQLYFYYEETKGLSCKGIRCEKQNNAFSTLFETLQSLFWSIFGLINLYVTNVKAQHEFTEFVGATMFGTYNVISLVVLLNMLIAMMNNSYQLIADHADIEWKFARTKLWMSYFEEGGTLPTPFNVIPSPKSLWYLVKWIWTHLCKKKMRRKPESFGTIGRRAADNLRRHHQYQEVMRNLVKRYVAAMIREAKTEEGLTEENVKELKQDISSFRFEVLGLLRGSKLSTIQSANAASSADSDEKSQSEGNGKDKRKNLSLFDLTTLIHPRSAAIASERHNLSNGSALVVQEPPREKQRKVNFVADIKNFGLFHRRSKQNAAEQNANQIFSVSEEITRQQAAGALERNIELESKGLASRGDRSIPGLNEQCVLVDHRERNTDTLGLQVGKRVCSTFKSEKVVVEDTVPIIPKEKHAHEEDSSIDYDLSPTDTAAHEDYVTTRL
# experiment-description: mouse TRPC4 channel activators, dose response, cell-based, HEK293 TRPC4/mu-opioid, Fluo-4 calcium (AID 434937)
# Assay type: functional
The source made the active and inactive calls.

CC(=O)N1CCc2cc(Br)cc(S(=O)(=O)NCCCN(C)Cc3ccccc3)c21 : 149 nM (active)
CCOC(=O)C1(Cc2cccc(F)c2)CCN(Cc2cnc(C)s2)CC1 : 944 nM (active)
Cc1cc(CSC(=N)N)c(CSC(=N)N)cc1C : 2110 nM (active)
Cc1ccccc1C(=O)NNC(=S)NC(=O)c1cccs1 : 5960 nM (active)

Moving on to the next compound.
Q: Quick check: EC50 on Short transient receptor potential channel 4 (Mus musculus), item `COc1cc2c3cc1Oc1cc(ccc1O)C[C@@H]1c4c(cc(OC)c(O)c4Oc4ccc(cc4)C[C@H]3N(C)CC2)CCN1C` ?
Ans: 1330 nM (active)

---

# measured-on: Platelet-derived growth factor receptor alpha (Homo sapiens)
# Sequence (P16234 whole entry): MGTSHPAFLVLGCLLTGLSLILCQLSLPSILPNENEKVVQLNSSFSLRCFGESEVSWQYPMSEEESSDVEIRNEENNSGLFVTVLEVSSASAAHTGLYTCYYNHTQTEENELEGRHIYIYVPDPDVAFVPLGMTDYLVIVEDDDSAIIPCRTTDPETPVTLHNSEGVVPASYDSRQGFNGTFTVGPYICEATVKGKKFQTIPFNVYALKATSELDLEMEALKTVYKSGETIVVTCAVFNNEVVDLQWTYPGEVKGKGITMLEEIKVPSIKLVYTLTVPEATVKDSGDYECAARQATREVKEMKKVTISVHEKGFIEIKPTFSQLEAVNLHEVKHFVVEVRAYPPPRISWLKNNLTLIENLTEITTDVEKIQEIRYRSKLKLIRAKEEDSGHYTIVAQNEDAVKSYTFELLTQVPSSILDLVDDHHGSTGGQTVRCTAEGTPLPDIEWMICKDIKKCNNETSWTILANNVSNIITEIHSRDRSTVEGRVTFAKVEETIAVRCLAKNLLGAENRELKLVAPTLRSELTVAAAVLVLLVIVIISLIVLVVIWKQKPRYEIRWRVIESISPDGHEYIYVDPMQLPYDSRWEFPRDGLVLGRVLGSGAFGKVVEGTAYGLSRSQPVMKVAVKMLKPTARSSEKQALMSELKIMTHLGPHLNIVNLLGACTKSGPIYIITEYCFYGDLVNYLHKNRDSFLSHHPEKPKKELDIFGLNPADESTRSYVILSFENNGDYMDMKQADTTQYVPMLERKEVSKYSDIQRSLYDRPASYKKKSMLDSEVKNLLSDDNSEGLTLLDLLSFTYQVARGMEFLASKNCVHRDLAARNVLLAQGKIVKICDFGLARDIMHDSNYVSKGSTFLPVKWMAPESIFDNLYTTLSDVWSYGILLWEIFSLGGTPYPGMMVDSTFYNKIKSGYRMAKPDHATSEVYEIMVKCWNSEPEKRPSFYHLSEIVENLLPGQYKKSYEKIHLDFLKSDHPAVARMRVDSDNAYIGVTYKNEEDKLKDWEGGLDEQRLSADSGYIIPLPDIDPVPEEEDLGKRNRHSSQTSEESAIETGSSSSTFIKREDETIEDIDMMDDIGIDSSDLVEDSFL
# experiment-description: Navigating the Kinome. Panel member name: PDGFRA
# Format: functional
Active and inactive are the calls of the source.
Overview of reported Ki across a group of molecules:

These solved cases illustrate the format of a correct answer.
O=C(Nc1cccc(C(F)(F)F)n1)Nc1ccnc2cc(Cl)ccc12 : > 2510 nM (inactive)
O=C(Nc1cccc(C(F)(F)F)n1)Nc1ccnc2cc(OC(F)F)ccc12 : > 2510 nM (inactive)
CCC1CC(NS(=O)(=O)C2CC2)CC1c1ncc2cnc3[nH]ccc3n12 (centres undefined) : > 2510 nM (inactive)

Q: Any idea what Ki was measured for `O=c1[nH]c2cc(Br)cnc2[nH]1` ?
Ans: 5010 nM (active)

---

# measured-on: Beta-galactosidase (Escherichia coli, UniProt Q8VNN2)
# Sequence (Q8VNN2 whole entry): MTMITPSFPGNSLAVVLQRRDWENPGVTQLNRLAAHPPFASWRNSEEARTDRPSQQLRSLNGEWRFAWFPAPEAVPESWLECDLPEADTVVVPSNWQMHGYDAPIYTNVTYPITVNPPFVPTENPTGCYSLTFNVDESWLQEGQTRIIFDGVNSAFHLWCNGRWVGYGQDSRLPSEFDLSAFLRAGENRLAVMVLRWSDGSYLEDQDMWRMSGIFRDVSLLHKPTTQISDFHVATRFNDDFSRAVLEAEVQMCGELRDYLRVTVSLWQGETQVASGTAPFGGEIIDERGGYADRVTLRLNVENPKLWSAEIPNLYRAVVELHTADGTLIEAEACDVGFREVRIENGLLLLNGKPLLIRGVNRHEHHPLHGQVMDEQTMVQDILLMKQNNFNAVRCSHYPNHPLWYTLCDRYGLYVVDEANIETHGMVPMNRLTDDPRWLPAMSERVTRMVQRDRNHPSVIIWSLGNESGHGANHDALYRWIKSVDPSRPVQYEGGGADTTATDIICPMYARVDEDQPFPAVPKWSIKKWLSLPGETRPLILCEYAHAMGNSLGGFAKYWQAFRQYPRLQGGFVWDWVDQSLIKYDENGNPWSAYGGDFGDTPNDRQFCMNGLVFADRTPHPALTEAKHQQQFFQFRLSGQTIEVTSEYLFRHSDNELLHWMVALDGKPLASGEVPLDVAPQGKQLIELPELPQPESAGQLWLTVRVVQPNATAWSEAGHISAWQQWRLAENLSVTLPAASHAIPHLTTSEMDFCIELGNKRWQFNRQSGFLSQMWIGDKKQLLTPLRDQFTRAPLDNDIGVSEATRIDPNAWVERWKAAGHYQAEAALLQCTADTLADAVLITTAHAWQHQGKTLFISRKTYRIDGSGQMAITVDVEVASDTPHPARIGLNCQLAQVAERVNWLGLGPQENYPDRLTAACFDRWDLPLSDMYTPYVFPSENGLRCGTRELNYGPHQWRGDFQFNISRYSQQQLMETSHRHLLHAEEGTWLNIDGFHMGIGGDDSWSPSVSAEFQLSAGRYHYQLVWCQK
# experiment-description: beta-galactosidase enzyme inhibitors and activators, dose response, artefact control for CCR6 antagonist project, biochemical, E. coli enzyme, set 3 (AID 504712)
# Type: functional
Activity calls are given as the source filed them.
Form entry, call: pick from Yes for active, No for inactive

Solved cases (4 shown):
COc1cccc(/C=N/Nc2nc(Nc3ccc([N+](=O)[O-])cc3)nc(N3CCCC3)n2)c1O : No
CCOc1ccc(C=NNc2ccc(S(=O)(=O)Nc3ccccc3C(=O)O)cc2[N+](=O)[O-])cc1OC : No
C/C(=N\NC(=S)NCCc1ccccc1)c1ccc(Cl)cc1Cl : No
Cc1cc(C)c(S(=O)(=O)/N=C2\C=C(Nc3ccc(C(=O)O)cc3)C(=O)c3ccccc32)c(C)c1 : Yes

Kindly consider the entry below.
Q: So what was the verdict on CC1Cc2ccccc2N1C(=S)NC(=O)c1cccc(Br)c1 (stereo not given) in this test?
Ans: No

---

# measured-on: Dual specificity protein kinase CLK4 (Homo sapiens, UniProt Q9HAZ1)
# Sequence (Q9HAZ1 whole entry): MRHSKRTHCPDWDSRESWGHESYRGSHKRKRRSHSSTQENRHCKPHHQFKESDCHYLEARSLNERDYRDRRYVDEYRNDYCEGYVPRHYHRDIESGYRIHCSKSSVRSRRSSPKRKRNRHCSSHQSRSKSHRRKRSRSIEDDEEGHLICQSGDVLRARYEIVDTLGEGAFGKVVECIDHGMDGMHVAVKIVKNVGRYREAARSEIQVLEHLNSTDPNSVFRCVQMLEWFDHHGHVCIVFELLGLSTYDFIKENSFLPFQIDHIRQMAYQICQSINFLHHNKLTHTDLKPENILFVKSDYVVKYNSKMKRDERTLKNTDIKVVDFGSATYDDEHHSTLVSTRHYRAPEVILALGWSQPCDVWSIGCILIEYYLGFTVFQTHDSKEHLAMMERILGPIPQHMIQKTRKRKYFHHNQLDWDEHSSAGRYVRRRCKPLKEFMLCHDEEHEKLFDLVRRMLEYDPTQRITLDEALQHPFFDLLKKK
# Type: functional
Calls of active or inactive are those of the source.
Form entry, call: pick from 1 = active, 0 = inactive

Solved cases (3 shown):
O=C(Nc1cccc(C(F)(F)F)n1)Nc1ccnc2cc(Cl)ccc12 : 1
O=c1cc(-c2ccc(F)cc2)[nH]c2c(-c3ccc(F)cc3)cnn12 : 1
CCC1CC(NS(=O)(=O)C2CC2)CC1c1ncc2cnc3[nH]ccc3n12 (centres undefined) : 0

Kindly consider the entry below.
Q: So what was the verdict on `O=c1[nH]c2cc(Br)cnc2[nH]1` in this test?
Ans: 1

---

# measured-on: UniProt Q06418
# Sequence (Q06418 whole entry): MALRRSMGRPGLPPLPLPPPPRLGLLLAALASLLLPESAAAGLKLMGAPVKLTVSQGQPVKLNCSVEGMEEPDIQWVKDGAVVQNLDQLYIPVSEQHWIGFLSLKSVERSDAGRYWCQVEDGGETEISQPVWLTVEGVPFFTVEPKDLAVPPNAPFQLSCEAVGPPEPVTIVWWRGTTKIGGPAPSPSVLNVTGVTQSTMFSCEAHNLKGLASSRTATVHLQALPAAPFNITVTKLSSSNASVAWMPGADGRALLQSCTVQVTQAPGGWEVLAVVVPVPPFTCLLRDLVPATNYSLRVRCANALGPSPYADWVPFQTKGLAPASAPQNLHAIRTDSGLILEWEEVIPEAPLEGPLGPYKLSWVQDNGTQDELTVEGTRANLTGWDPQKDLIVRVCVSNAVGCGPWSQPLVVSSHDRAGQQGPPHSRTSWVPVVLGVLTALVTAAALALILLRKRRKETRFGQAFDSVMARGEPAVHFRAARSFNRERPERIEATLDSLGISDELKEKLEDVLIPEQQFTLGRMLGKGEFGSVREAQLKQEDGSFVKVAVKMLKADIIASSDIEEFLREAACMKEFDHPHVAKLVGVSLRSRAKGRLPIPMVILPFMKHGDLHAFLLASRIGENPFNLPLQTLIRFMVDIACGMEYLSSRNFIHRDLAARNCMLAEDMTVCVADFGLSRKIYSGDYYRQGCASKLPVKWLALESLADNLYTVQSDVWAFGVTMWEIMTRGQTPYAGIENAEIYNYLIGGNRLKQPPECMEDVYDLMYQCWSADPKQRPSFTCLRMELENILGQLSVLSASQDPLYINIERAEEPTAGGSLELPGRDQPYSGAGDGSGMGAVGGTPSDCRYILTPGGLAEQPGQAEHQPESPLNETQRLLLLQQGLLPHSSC
# Assay type: functional
Calls of active or inactive are those of the source.
Form entry, call: pick from active, inactive

Solved cases (3 shown):
CCC1CC(NS(=O)(=O)C2CC2)CC1c1ncc2cnc3[nH]ccc3n12 (centres undefined) : inactive
O=C(Nc1cccc(C(F)(F)F)n1)Nc1ccnc2cc(Cl)ccc12 : inactive
O=C(Nc1cccc(C(F)(F)F)n1)Nc1ccnc2cc(OC(F)F)ccc12 : inactive

Kindly consider the entry below.
Q: So what was the verdict on `O=c1[nH]c2cc(Br)cnc2[nH]1` in this test?
Ans: active
